- Test Protocol: CHI Log D procedure
- Type: physicochemical
- Test Context: pH 7.4, CHI Log D
chromatographic logD for assorted compounds

Example results:
CC(=O)N1CCC[C@]12CC=CCCCC1(CCCC=CCCCOC(=O)N3CC[C@@](C(=O)N[C@@H](Cc4ccccc4Cl)C(=O)N[C@@H](Cc4csc5ccccc45)C(=O)N[C@@H](CCC(N)=O)C(N)=O)(C3)NC(=O)[C@H]([C@@H](C)O)NC(=O)[C@H](Cc3ccccc3)NC(=O)[C@H](C)NC(=O)[C@H](C)NC(=O)[C@H](CC(=O)O)NC(=O)[C@H](CC(=O)O)NC1=O)NC(=O)[C@H](Cc1ccccc1)NC(=O)[C@H](CC(=O)O)NC2=O (stereo partly shown) [I-1043] : 2.15
CC(=O)N1CCC[C@]12CC=CCCCC1(CCCC=CCCCOC(=O)N3CC[C@@](C(=O)N[C@@H](Cc4ccccc4Cl)C(=O)N[C@@H](Cc4csc5ccccc45)C(=O)N[C@@H](CCC(N)=O)C(N)=O)(C3)NC(=O)[C@H](CC(N)=O)NC(=O)[C@H](Cc3ccccc3)NC(=O)[C@H](CO)NC(=O)[C@H](C)NC(=O)[C@H](CN(CC(=O)O)CC(F)(F)F)NC(=O)[C@H](CC(=O)O)NC1=O)NC(=O)[C@H](CC(C)(C)C)NC(=O)[C@H](CC(=O)O)NC2=O (stereo partly shown) [I-1004] : 2
CC(=O)N1CCC[C@]12CC=CCCCC1(CCCC=CCCCOC(=O)N3CC[C@@](C(=O)N[C@@H](Cc4ccccc4)C(=O)N[C@@H](Cc4csc5ccccc45)C(=O)N[C@@H](CCC(N)=O)C(N)=O)(C3)NC(=O)[C@H](CO)NC(=O)[C@H](Cc3ccc(C(F)(F)F)cc3)NC(=O)[C@H](C)NC(=O)[C@H](C)NC(=O)[C@H](CC(=O)O)NC(=O)[C@H](CC(=O)O)NC1=O)NC(=O)[C@H](CC1CCCCC1)NC(=O)[C@H](CC(=O)O)NC2=O (stereo partly shown) [I-1126] : 2.42
CC(=O)N1CCC[C@]12CC=CCCCC1(CCCC=CCCCCCC[C@@](C)(C(=O)N[C@@H](Cc3ccccc3)C(=O)N[C@@H](Cc3csc4ccccc34)C(=O)N[C@@H](Cc3c[nH]cn3)C(N)=O)NC(=O)[C@H](CCC(N)=O)NC(=O)[C@H](Cc3ccccc3)NC(=O)[C@H](C)NC(=O)[C@H](C)NC(=O)[C@H](CCC(=O)O)NC(=O)[C@H](CC(=O)O)NC1=O)NC(=O)[C@H](CC(F)(F)F)NC(=O)[C@H](CC(=O)O)NC2=O (stereo partly shown) [I-504] : 2.22
CC(=O)N1CCC[C@]12CC=CCCCC1(CCCC=CCCCCCC[C@@](C)(C(=O)N[C@@H](Cc3ccccc3)C(=O)N[C@@H](Cc3c[nH]c4ccccc34)C(=O)N[C@@H](CCC(N)=O)C(N)=O)NC(=O)[C@H](C(C)C)NC(=O)[C@H](Cc3ccccc3)NC(=O)[C@H](C)NC(=O)[C@H](C)NC(=O)[C@H](CC(=O)O)NC(=O)[C@H](CC(=O)O)NC1=O)NC(=O)[C@H](C)NC(=O)[C@H](CC(=O)O)NC2=O (stereo partly shown) [I-52] : 1.93

[in] Specify chromatographic logD for CC(=O)N1CCC[C@]12CC=CCCCC1(CCCC=CCCCCCC[C@@](C)(C(=O)N[C@@H](Cc3ccccc3)C(=O)N[C@@H](Cc3csc4ccccc34)C(=O)N[C@@H](CCC(N)=O)C(N)=O)NC(=O)[C@H](CC(N)=O)NC(=O)[C@H](Cc3ccccc3)NC(=O)[C@H](C)NC(=O)[C@H](C)NC(=O)[C@H](CC(=O)O)NC(=O)[C@H](CC(=O)O)NC1=O)NC(=O)[C@H](CC(C)(C)C)NC(=O)[C@H](CC(=O)O)NC2=O (stereo partly shown) [I-546] and stop.
[out] 2.4

[in] Specify chromatographic logD for CC(=O)N1CCC[C@]12CC=CCCCC1(CCCC=CCCCCCC[C@@](C)(C(=O)N[C@@H](Cc3ccccc3)C(=O)N[C@@H](Cc3c[nH]c4ccccc34)C(=O)N[C@@H](CCC(N)=O)C(N)=O)NC(=O)[C@H](C(C)C)NC(=O)[C@H](Cc3ccccc3)NC(=O)[C@H](C)NC(=O)[C@H](C)NC(=O)[C@H](CCc3ccc(O)cc3)NC(=O)[C@H](CC(=O)O)NC1=O)NC(=O)[C@H](C)NC(=O)[C@H](CC(=O)O)NC2=O (stereo partly shown) [I-273] and stop.
[out] 2.74

[in] Specify chromatographic logD for CC(=O)N1CCC[C@]12CC=CCCCC1(CCCC=CCCCCCC[C@@](C)(C(=O)N[C@@H](Cc3ccccc3)C(=O)N[C@@H](Cc3csc4ccccc34)C(=O)N[C@@H](CCC(N)=O)C(N)=O)NC(=O)[C@H](CCCNC(N)=O)NC(=O)[C@H](Cc3ccccc3)NC(=O)[C@H](C)NC(=O)[C@H](C)NC(=O)[C@H](CCC(=O)O)NC(=O)[C@H](CC(=O)O)NC1=O)NC(=O)[C@H](CC(C)C)NC(=O)[C@H](CC(=O)O)NC2=O (stereo partly shown) [I-621] and stop.
[out] 2.34

[in] Specify chromatographic logD for CC(=O)N1CCC[C@]12CC=CCCCC1(CCCC=CCCCOC(=O)N3CC[C@@](C(=O)N[C@@H](Cc4ccc(O)cc4)C(=O)N[C@@H](Cc4csc5ccccc45)C(=O)N[C@@H](CCC(N)=O)C(N)=O)(C3)NC(=O)[C@H](Cc3ccccc3)NC(=O)[C@H](Cc3ccccc3)NC(=O)[C@H](C)NC(=O)[C@H](C)NC(=O)[C@H](CN(CC(=O)O)CC(F)(F)F)NC(=O)[C@H](CC(=O)O)NC1=O)NC(=O)[C@H](CC(C)(C)C)NC(=O)[C@H](CC(=O)O)NC2=O (stereo partly shown) [I-989] and stop.
[out] 2.1

[in] Specify chromatographic logD for CC(=O)N1CCC[C@]12CC=CCCCC1(CCCC=CCCCCCC[C@@](C)(C(=O)N[C@@H](Cc3ccccc3)C(=O)N[C@@H](Cc3csc4ccccc34)C(=O)N[C@@H](CCC(N)=O)C(N)=O)NC(=O)[C@H](CCC(N)=O)NC(=O)[C@H](Cc3ccccc3)NC(=O)[C@H](C)NC(=O)[C@H](C)NC(=O)[C@H](CCC(=O)O)NC(=O)[C@H](CC(=O)O)NC1=O)NC(=O)[C@H](CC(C)(C)C)NC(=O)[C@H](CC(=O)O)NC2=O (stereo partly shown) [I-544] and stop.
[out] 2.48
